Assay: Solubility of compound 1 in the solvent under evaluation at 22° C. and 65° C. (crystallization study)
Assay type: physicochemical
Conditions: Ethyl acetate, 65 °C, organic solvent or mixture, solvent: Ethyl acetate; read-out: Solubility at 65° C.
measuredParameter: solubility

Nc1ncc(-c2cc(N3C[C@@H]4C[C@H]3CO4)nc(N3CCC(F)(F)C3)n2)cc1OC(F)F [Compound 1]; > 50 mg/mL

###

Assay: Solubility of compound 1 in the solvent under evaluation at 22° C. and 65° C. (crystallization study)
Format: physicochemical
Details: Acetic acid, 22 °C, organic solvent or mixture, thermodynamic from solid, solvent: Acetic acid; read-out: Solubility at 22° C.
measuredParameter: solubility

Nc1ncc(-c2cc(N3C[C@@H]4C[C@H]3CO4)nc(N3CCC(F)(F)C3)n2)cc1OC(F)F; > 100 mg/mL

###

Assay: Solubility of compound 1 in the solvent under evaluation at 22° C. and 65° C. (crystallization study)
Assay type: physicochemical
Settings: MTBE, 65 °C, organic solvent or mixture, thermodynamic from solid, solvent: MTBE; read-out: Solubility at 65° C.
measuredParameter: solubility

Nc1ncc(-c2cc(N3C[C@@H]4C[C@H]3CO4)nc(N3CCC(F)(F)C3)n2)cc1OC(F)F; < 50 mg/mL

###

Assay: Solubility of compound 1 in the solvent under evaluation at 22° C. and 65° C. (crystallization study)
Type: physicochemical
Conditions: Ethyl acetate, 22 °C, organic solvent or mixture, thermodynamic from solid, solvent: Ethyl acetate; read-out: Solubility at 22° C.
measuredParameter: solubility

Nc1ncc(-c2cc(N3C[C@@H]4C[C@H]3CO4)nc(N3CCC(F)(F)C3)n2)cc1OC(F)F [Compound 1]; < 50 mg/mL

###

Assay: Solubility of compound 1 in the solvent under evaluation at 22° C. and 65° C. (crystallization study)
Format: physicochemical
Conditions: 15% water in THF, 22 °C, organic solvent or mixture, thermodynamic from solid, solvent: 15% water in THF; read-out: Solubility at 22° C.
measuredParameter: solubility

Nc1ncc(-c2cc(N3C[C@@H]4C[C@H]3CO4)nc(N3CCC(F)(F)C3)n2)cc1OC(F)F; > 50 mg/mL

###

Assay: Solubility of compound 1 in the solvent under evaluation at 22° C. and 65° C. (crystallization study)
Assay type: physicochemical
Details: NMP, 22 °C, organic solvent or mixture, thermodynamic from solid, solvent: NMP; read-out: Solubility at 22° C.
measuredParameter: solubility

Nc1ncc(-c2cc(N3C[C@@H]4C[C@H]3CO4)nc(N3CCC(F)(F)C3)n2)cc1OC(F)F; > 200 mg/mL

###

Assay: Solubility of compound 1 in the solvent under evaluation at 22° C. and 65° C. (crystallization study)
Assay type: physicochemical
Details: MEK, 65 °C, organic solvent or mixture, thermodynamic from solid, solvent: MEK; read-out: Solubility at 65° C.
measuredParameter: solubility

Nc1ncc(-c2cc(N3C[C@@H]4C[C@H]3CO4)nc(N3CCC(F)(F)C3)n2)cc1OC(F)F; < 50 mg/mL

###

Test: Solubility of compound 1 in the solvent under evaluation at 22° C. and 65° C. (crystallization study)
Type: physicochemical
Details: Isopropyl acetate, 65 °C, organic solvent or mixture, solvent: Isopropyl acetate; read-out: Solubility at 65° C.
measuredParameter: solubility

Nc1ncc(-c2cc(N3C[C@@H]4C[C@H]3CO4)nc(N3CCC(F)(F)C3)n2)cc1OC(F)F [Compound 1]; < 50 mg/mL

###

Test: Solubility of compound 1 in the solvent under evaluation at 22° C. and 65° C. (crystallization study)
Type: physicochemical
Details: 15% water in acetone, 22 °C, organic solvent or mixture, thermodynamic from solid, solvent: 15% water in acetone; read-out: Solubility at 22° C.
measuredParameter: solubility

Nc1ncc(-c2cc(N3C[C@@H]4C[C@H]3CO4)nc(N3CCC(F)(F)C3)n2)cc1OC(F)F; < 50 mg/mL

###

Assay: Solubility of compound 1 in the solvent under evaluation at 22° C. and 65° C. (crystallization study)
Format: physicochemical
Conditions: ethanol, 22 °C, organic solvent or mixture, thermodynamic from solid, solvent: Ethanol; read-out: Solubility at 22° C.
measuredParameter: solubility

Nc1ncc(-c2cc(N3C[C@@H]4C[C@H]3CO4)nc(N3CCC(F)(F)C3)n2)cc1OC(F)F; < 50 mg/mL

###

Assay: Solubility of compound 1 in the solvent under evaluation at 22° C. and 65° C. (crystallization study)
Assay type: physicochemical
Conditions: Dimethyl carbonate, 22 °C, organic solvent or mixture, thermodynamic from solid, solvent: Dimethyl carbonate; read-out: Solubility at 22° C.
measuredParameter: solubility

Nc1ncc(-c2cc(N3C[C@@H]4C[C@H]3CO4)nc(N3CCC(F)(F)C3)n2)cc1OC(F)F; < 50 mg/mL

###

Assay: Solubility of compound 1 in the solvent under evaluation at 22° C. and 65° C. (crystallization study)
Format: physicochemical
Details: Diisopropylamine, 65 °C, organic solvent or mixture, solvent: Diisopropylamine; read-out: Solubility at 65° C.
measuredParameter: solubility

Nc1ncc(-c2cc(N3C[C@@H]4C[C@H]3CO4)nc(N3CCC(F)(F)C3)n2)cc1OC(F)F; < 50 mg/mL

###

Experiment: Solubility of compound 1 in the solvent under evaluation at 22° C. and 65° C. (crystallization study)
Assay type: physicochemical
Conditions: i-butanol, 65 °C, organic solvent or mixture, thermodynamic from solid, solvent: i-Butanol; read-out: Solubility at 65° C.
measuredParameter: solubility

Nc1ncc(-c2cc(N3C[C@@H]4C[C@H]3CO4)nc(N3CCC(F)(F)C3)n2)cc1OC(F)F; < 50 mg/mL

###

Assay: Solubility of compound 1 in the solvent under evaluation at 22° C. and 65° C. (crystallization study)
Type: physicochemical
Details: water, 22 °C, water, thermodynamic from solid, solvent: Water; read-out: Solubility at 22° C.
measuredParameter: solubility

Nc1ncc(-c2cc(N3C[C@@H]4C[C@H]3CO4)nc(N3CCC(F)(F)C3)n2)cc1OC(F)F; < 50 mg/mL

###

Test: Solubility of compound 1 in the solvent under evaluation at 22° C. and 65° C. (crystallization study)
Format: physicochemical
Details: nitromethane, 22 °C, organic solvent or mixture, thermodynamic from solid, solvent: Nitromethane; read-out: Solubility at 22° C.
measuredParameter: solubility

Nc1ncc(-c2cc(N3C[C@@H]4C[C@H]3CO4)nc(N3CCC(F)(F)C3)n2)cc1OC(F)F [Compound 1]; < 50 mg/mL

###

Assay: Solubility of compound 1 in the solvent under evaluation at 22° C. and 65° C. (crystallization study)
Format: physicochemical
Settings: MTBE, 22 °C, organic solvent or mixture, thermodynamic from solid, solvent: MTBE; read-out: Solubility at 22° C.
Procedure: Crystalline compound 1 was evaluated. Crystallization study procedures were done based on the solubility of compound 1 in the solvent under evaluation as follows. The results are presented below in Table 10 where: * refers to compound 1 prepared as described above; and ** refers to compound 1 prepared as described above and further incubated at 100% relative humidity at 22° C. for 17 days.
measuredParameter: solubility

Nc1ncc(-c2cc(N3C[C@@H]4C[C@H]3CO4)nc(N3CCC(F)(F)C3)n2)cc1OC(F)F; < 50 mg/mL

###

Test: Solubility of compound 1 in the solvent under evaluation at 22° C. and 65° C. (crystallization study)
Type: physicochemical
Conditions: MIBK, 65 °C, organic solvent or mixture, thermodynamic from solid, solvent: MIBK; read-out: Solubility at 65° C.
measuredParameter: solubility

Nc1ncc(-c2cc(N3C[C@@H]4C[C@H]3CO4)nc(N3CCC(F)(F)C3)n2)cc1OC(F)F [Compound 1]; < 50 mg/mL

###

Test: Solubility of compound 1 in the solvent under evaluation at 22° C. and 65° C. (crystallization study)
Assay type: physicochemical
Conditions: MEK, 22 °C, organic solvent or mixture, thermodynamic from solid, solvent: MEK; read-out: Solubility at 22° C.
measuredParameter: solubility

Nc1ncc(-c2cc(N3C[C@@H]4C[C@H]3CO4)nc(N3CCC(F)(F)C3)n2)cc1OC(F)F; < 50 mg/mL

###

Assay: Solubility of compound 1 in the solvent under evaluation at 22° C. and 65° C. (crystallization study)
Type: physicochemical
Settings: 5% water in isopropanol, 22 °C, organic solvent or mixture, thermodynamic from solid, solvent: 5% water in isopropanol; read-out: Solubility at 22° C.
measuredParameter: solubility

Nc1ncc(-c2cc(N3C[C@@H]4C[C@H]3CO4)nc(N3CCC(F)(F)C3)n2)cc1OC(F)F [Compound 1]; < 50 mg/mL

###

Assay: Solubility of compound 1 in the solvent under evaluation at 22° C. and 65° C. (crystallization study)
Type: physicochemical
Conditions: 5% water in methanol, 22 °C, organic solvent or mixture, thermodynamic from solid, solvent: 5% water in methanol; read-out: Solubility at 22° C.
measuredParameter: solubility

Nc1ncc(-c2cc(N3C[C@@H]4C[C@H]3CO4)nc(N3CCC(F)(F)C3)n2)cc1OC(F)F [Compound 1]; < 50 mg/mL
